Recorded melting point, one value per entry.

Recorded results for 5 compounds are shown here.
COMPOUND: COC1=C(OC)C(=O)C(Cc2ccc(C(=O)Nc3cccnc3Cl)c(O)c2)=C(C)C1=O [Example 133]
MEASUREMENT: 200.2 to 202.6 °C

COMPOUND: COC1=C(OC)C(=O)C(Cc2ccc(OC(C)=O)c(C(=O)Nc3ccc(-n4ccnc4)cc3)c2)=C(C)C1=O [Example 208]
MEASUREMENT: 116.5 to 118.5 °C

COMPOUND: COC1=C(OC)C(=O)C(Cc2ccc(O)c(C(=O)Nc3cccc(C(F)(F)F)c3)c2)=C(C)C1=O [Example 152]
MEASUREMENT: 127.5 to 130 °C

COMPOUND: COC1=C(OC)C(=O)C(Cc2ccc(O)c(C(=O)Nc3ccc(C(=O)O)cc3)c2)=C(C)C1=O [Example 190]
MEASUREMENT: 257 to 260 °C

COMPOUND: COC1=C(OC)C(=O)C(Cc2ccc(O)c(C(=O)Nc3ccc(S(=O)(=O)C(F)(F)F)cc3)c2)=C(C)C1=O [Example 174]
MEASUREMENT: 223 to 225.5 °C

The reported value for COC1=C(OC)C(=O)C(Cc2ccc(O)c(C(=O)Nc3cccnc3)c2)=C(C)C1=O [Example 158] in terms of melting point is 119 to 122.5 °C

The reported value for COC1=C(OC)C(=O)C(Cc2ccc(OC(C)=O)c(C(=O)Nc3ccc(NC(=O)OC(C)(C)C)cc3)c2)=C(C)C1=O [Example 199] in terms of melting point is 188.5 to 191 °C
